Attribution: patent US20210284749A1

Target: T1, human monomeric BCMA antigen (human, UniProt Q02223 5-54, limits assumed)
T1 construct: also called recombinant human BCMA antigens
T1 chain: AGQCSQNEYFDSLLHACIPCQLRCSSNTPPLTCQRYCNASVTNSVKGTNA
Assay: SPR (Biacore T200), antibody captured on protein A chip, antigen 6.25-100 nM
Experimental: In particular, the prepared antibodies were diluted with a 1×HPS-EP buffer (GE Healthcare, BR-1006-69). The target antigen-binding affinity analysis was performed using a Biacore T200 (GE Healthcare). The antibodies were flowed onto a protein A chip at a contact time of 60 seconds, a stabilization time of 30 seconds, and a flow rate of 30 μl/min until a capture level reached 128 RU (Response Unit), thereby preparing an antibody-captured protein A chip. […]
// reported koff per item
Please reply with the bare figure in s⁻¹ and do not write the unit itself.

Binder | Measured quantity | Quantitative result
mutant antibody 5D5 LM4 (antibody, V domains shown, Light chain CDR mutant of 5D5 (IgG1); heavy chain as 5D5) VH: EVQLLESGGGLVQPGGSLRLSCAASGFTFSDYGLSWVRQAPGKGLEWVSLIDSSGSSTFYADSVKGRFTISRDNSKNTLYLQMNSLRAEDTAVYYCAKEHGLFDSWGQGTLVTVSS VL: EIVLTQSPGTLSLSPGERATLSCKASQDIDDAINWYQQKPGQAPRLLIYDASLRATGIPDRFSGSGSGTDFTLTISRLEPEDFAVYYCQQSLRTPITFGQGTKLEIKR | koff | 0.0594
mutant antibody 5A6 LM6 (antibody, V domains shown, Light chain CDR mutant of 5A6 (IgG1); heavy chain as 5A6) VH: EVQLLESGGGLVQPGGSLRLSCAASGFTFSNYGVHWVRQAPGKGLEWVSYISYSGGTYYNPSLKSRFTISRDNSKNTLYLQMNSLRAEDTAVYYCARDSDDFGFDYWGQGTLVTVSS VL: QSVLTQPPSASGTPGQRVTISCQGESLRSYYVNWYQQLPGTAPKLLIYDHSKRPTGVPDRFSGSKSGTSASLAISGLRSEDEADYYCQSYDASTVVFGGGTKLTVLG | koff | 0.00922
anti-BCMA IgG antibody 5A6 (antibody, V domains shown, also called 5A6 WT; 5A6 antibody) VH: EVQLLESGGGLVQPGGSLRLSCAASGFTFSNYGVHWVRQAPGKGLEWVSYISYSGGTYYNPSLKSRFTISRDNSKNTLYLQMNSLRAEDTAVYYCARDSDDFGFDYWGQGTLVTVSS VL: QSVLTQPPSASGTPGQRVTISCQGDSLRSYYVNWYQQLPGTAPKLLIYDHSKRPTGVPDRFSGSKSGTSASLAISGLRSEDEADYYCQSYDSSTVVFGGGTKLTVLG | koff | 0.0249

Next, consider the following binder.
Q) Fill in the blank: the reported koff of anti-BCMA IgG antibody 5D5 (antibody, V domains shown, also called 5D5 WT; 5D5 antibody) VH: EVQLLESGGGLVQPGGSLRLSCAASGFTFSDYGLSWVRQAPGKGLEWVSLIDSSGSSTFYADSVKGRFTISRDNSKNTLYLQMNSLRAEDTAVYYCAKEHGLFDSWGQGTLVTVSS VL: EIVLTQSPGTLSLSPGERATLSCKASQDIDDDINWYQQKPGQAPRLLIYDASLRATGIPDRFSGSGSGTDFTLTISRLEPEDFAVYYCQQSLRTPITFGQGTKLEIKR is ____.
A) 0.0601
